The origin of these recorded values is patent US20120035175A1.

Target: recombinant murine DHODH (Mus musculus, UniProt O35435)
Construct: Prof; M. Löffler, Marburg, Germany (gift)
Sequence (O35435 whole entry): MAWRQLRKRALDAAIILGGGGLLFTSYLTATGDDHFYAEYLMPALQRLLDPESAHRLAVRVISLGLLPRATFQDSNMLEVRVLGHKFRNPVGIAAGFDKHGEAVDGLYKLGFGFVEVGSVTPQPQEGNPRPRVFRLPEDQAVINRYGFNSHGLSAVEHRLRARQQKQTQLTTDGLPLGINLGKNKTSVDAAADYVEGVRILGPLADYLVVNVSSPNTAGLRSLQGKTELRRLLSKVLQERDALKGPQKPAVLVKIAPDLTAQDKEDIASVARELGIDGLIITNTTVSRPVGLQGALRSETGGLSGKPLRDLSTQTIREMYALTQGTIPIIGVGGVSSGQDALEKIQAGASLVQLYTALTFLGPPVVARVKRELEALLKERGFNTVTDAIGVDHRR
Assay: Inhibition assay of DHODH activity (murine enzyme)
Format: biochemical
Conditions: class symbols, key in nM
The reader will find reported IC50 values listed item by item below.

{"MOLECULE_SMILES": "COc1ccccc1-c1ccc(NC(=O)C2=C(C(=O)O)CCC2)c(Cl)c1", "SYSTEM_NAME": "recombinant murine DHODH (Mus musculus, UniProt O35435)", "MEASURED_QUANTITY": "IC50", "READING": "800 to 1500 nM"}
{"MOLECULE_SMILES": "O=C(O)C1=C(C(=O)Nc2ccc(OCc3ccccc3)c(Cl)c2)CCC1", "SYSTEM_NAME": "recombinant murine DHODH (Mus musculus, UniProt O35435)", "MEASURED_QUANTITY": "IC50", "READING": "800 to 1500 nM"}
{"MOLECULE_SMILES": "COc1ccc(-c2ccc(NC(=O)C3=C(C(=O)O)CCC3)cc2Cl)cc1", "SYSTEM_NAME": "recombinant murine DHODH (Mus musculus, UniProt O35435)", "MEASURED_QUANTITY": "IC50", "READING": "< 800 nM"}
{"MOLECULE_SMILES": "O=C(O)C1=C(C(=O)Nc2c(F)cc(-c3ccccc3F)cc2F)CCC1", "SYSTEM_NAME": "recombinant murine DHODH (Mus musculus, UniProt O35435)", "MEASURED_QUANTITY": "IC50", "READING": "800 to 1500 nM"}
{"MOLECULE_SMILES": "COc1ccccc1-c1cc(F)c(NC(=O)C2=C(C(=O)O)COC2)c(F)c1", "SYSTEM_NAME": "recombinant murine DHODH (Mus musculus, UniProt O35435)", "MEASURED_QUANTITY": "IC50", "READING": "> 1500 nM"}

// query Requested field: IC50. Item: `O=C(O)C1=C(C(=O)Nc2ccc(Oc3ccccc3)cc2)CCC1`
// result < 800 nM

// query Requested field: IC50. Item: `COc1ccc(-c2cc(F)c(NC(=O)C3=C(C(=O)O)CCC3)c(F)c2)c(OC)c1`
// result > 1500 nM

###

Test system: Human peripheral blood mononuclear cells (PBMC), T-cell proliferation
Test: Proliferation assay of human T-cells (PHA-stimulated PBMC, BrdU ELISA)
Assay type: cell-based
Conditions: PHA 20 μg/ml, 48 hours
MEASURED_QUANTITY: pIC50
To interpret pIC50, take it as minus log10 of a concentration measured in moles per litre.

// query Requested field: pIC50. Item: COc1cccc(-c2ccc(NC(=O)C3=C(C(=O)O)CCC3)c(F)c2)c1 [Compound 26]
// result 5.39

###

Assay: Dynamic vapor sorption (water uptake)
Format: physicochemical
Conditions: 95% r.h.
The reader will find reported % water uptake at 95% r.h. values listed item by item below.
Form entry: value (%) — number only.

Example cases with answers are listed next.
{"COMPOUND": "CCNCC.COc1cccc(-c2ccc(NC(=O)C3=C(C(=O)O)CCC3)c(F)c2)c1 [Diethylamine (DEA) salt]", "% water uptake at 95% r.h. (%)": 0.5}
{"COMPOUND": "COc1cccc(-c2ccc(NC(=O)C3=C(C(=O)O)CCC3)c(F)c2)c1 [Compound 26]", "% water uptake at 95% r.h. (%)": 0.1}

// query Requested field: % water uptake at 95% r.h.. Item: [O-][n+]1ccccc1[S-].[O-][n+]1ccccc1[S-].[Zn+2] [Zinc salt]
// result 5.5

###

Target: DHODH (Rattus norvegicus, UniProt Q63707)
Sequence (Q63707 whole entry): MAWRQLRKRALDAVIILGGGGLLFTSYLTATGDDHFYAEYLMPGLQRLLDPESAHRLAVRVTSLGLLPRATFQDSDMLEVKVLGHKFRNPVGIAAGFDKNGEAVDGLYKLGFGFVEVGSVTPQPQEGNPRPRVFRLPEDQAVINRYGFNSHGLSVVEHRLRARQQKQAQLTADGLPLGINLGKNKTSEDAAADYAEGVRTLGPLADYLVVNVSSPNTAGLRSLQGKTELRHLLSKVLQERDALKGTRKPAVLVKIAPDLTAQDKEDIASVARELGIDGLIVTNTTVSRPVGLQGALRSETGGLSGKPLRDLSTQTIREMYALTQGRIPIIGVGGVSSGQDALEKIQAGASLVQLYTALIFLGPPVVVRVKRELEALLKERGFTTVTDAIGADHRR
Assay: Inhibition assay of DHODH activity (column headed 'rate')
Type: biochemical
Conditions: class symbols, key in nM
MEASURED_QUANTITY: IC50

// query Notebook: pull reported IC50 for DHODH (Rattus norvegicus, UniProt Q63707), entry COc1ccccc1-c1cc(F)c(NC(=O)C2=C(C(=O)O)COC2)c(F)c1 [Compound 47]
// result < 800 nM

###

The reader will find reported IC50 values listed item by item below.
Target: recombinant human DHODH (Homo sapiens)
Construct: Prof; M. Löffler, Marburg, Germany (gift)
Sequence (Q02127 whole entry): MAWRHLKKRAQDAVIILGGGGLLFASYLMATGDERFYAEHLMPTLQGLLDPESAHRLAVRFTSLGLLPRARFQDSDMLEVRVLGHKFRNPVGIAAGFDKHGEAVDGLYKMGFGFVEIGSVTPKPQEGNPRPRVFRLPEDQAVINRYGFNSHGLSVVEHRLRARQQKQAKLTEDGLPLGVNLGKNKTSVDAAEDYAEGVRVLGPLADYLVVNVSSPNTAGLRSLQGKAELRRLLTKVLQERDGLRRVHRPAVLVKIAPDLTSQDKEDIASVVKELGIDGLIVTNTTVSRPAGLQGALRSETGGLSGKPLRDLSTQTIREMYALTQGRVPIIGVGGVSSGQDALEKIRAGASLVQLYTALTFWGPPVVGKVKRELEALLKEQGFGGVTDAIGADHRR
Experiment: Inhibition assay of DHODH activity (human enzyme)
Type: biochemical
Conditions: recombinant human DHODH; class symbols, key in nM; read-out: human IC50-Value

{"MOLECULE_SMILES": "O=C(O)C1=C(C(=O)Nc2cc(Br)c(OCc3ccc(F)c(F)c3)c(Br)c2)CCC1", "READING": "< 800 nM"}

Now turn to the next molecule.
// query Requested field: IC50. Item: `COc1ccccc1-c1cc(F)c(NC(=O)C2=C(C(=O)O)COC2)c(F)c1`
// result < 800 nM

###

Assay: Dynamic vapor sorption (water uptake)
Assay type: physicochemical
Conditions: about 85% r.h.
The reader will find reported % water uptake at 85% r.h. values listed item by item below.
Form entry: value (%) — number only.

// query Requested field: % water uptake at 85% r.h.. Item: [O-][n+]1ccccc1[S-].[O-][n+]1ccccc1[S-].[Zn+2] [Zinc salt]
// result 4

// query Requested field: % water uptake at 85% r.h.. Item: COc1cccc(-c2ccc(NC(=O)C3=C(C(=O)O)CCC3)c(F)c2)c1 [Compound 26]
// result 0.03

// query Requested field: % water uptake at 85% r.h.. Item: CCNCC.COc1cccc(-c2ccc(NC(=O)C3=C(C(=O)O)CCC3)c(F)c2)c1 [Diethylamine (DEA) salt]
// result 0.2

// query Requested field: % water uptake at 85% r.h.. Item: COc1cccc(-c2ccc(NC(=O)C3=C(C(=O)O)CCC3)c(F)c2)c1.N=C(N)NCCCC(N)C(=O)O [L-Arginine salt]
// result 1.7

###

Assay: Dynamic vapor sorption (water uptake)
Type: physicochemical
Settings: 95% r.h.
From the text: DVS (SMS): Surface Measurement Systems Ltd. DVS-1 water vapour sorption analyzer. The sample is placed on a platinum sample pan and allowed to equilibrate at a given relative humidity (r.h.), usually 50% r.h. Then, a pre-defined humidity program was started with a scanning rate of 5% r.h. change per hour. First step: from 50% r.h. to 0% r.h. (in case of a possibly hydrate as starting material 50 to 95% r.h.), second step: from 0% to 95% r.h. […]
MEASURED_QUANTITY: % water uptake at 95% r.h.

// query Requested field: % water uptake at 95% r.h.. Item: COc1cccc(-c2ccc(NC(=O)C3=C(C(=O)O)CCC3)c(F)c2)c1.N=C(N)NCCCC(N)C(=O)O [L-Arginine salt]
// result >12%

###

Test: Dynamic vapor sorption (water uptake)
Type: physicochemical
Details: about 85% r.h.

{"MOLECULE": "COc1cccc(-c2ccc(NC(=O)C3=C(C(=O)[O-])CCC3)c(F)c2)c1.COc1cccc(-c2ccc(NC(=O)C3=C(C(=O)[O-])CCC3)c(F)c2)c1.[Mg+2] [Mg salt]", "% water uptake at 85% r.h.": "Ca. 5%"}
{"MOLECULE": "COc1cccc(-c2ccc(NC(=O)C3=C(C(=O)[O-])CCC3)c(F)c2)c1.[Na+] [Na salt]", "% water uptake at 85% r.h.": "Ca. 5%"}
